- measured.target: Transient receptor potential cation channel subfamily A member 1 (Homo sapiens)
- method.description: Antagonist activity at human TRPA1 expressed in HEK293 cells assessed as decrease in flufenamic acid-evoked increase in intracellular calcium level at 1 uM measured for 180 secs with 1 sec interval by Fluo4-AM dye-based fluorescence assay relative to control
- Format: cell-based
Note to self: values exactly at 6% are 1 (yes). So inhibition at or above 6% is 1 (yes), below is 0 (no).

Worked examples follow.
COc1nc2c(c(=O)n(C)c(=O)n2C)n1CC(=O)Nc1ccc(C(C)C)cc1 = 0 (no)
CCCOc1nc2c(c(=O)n(C)c(=O)n2C)n1CCCC(=O)Nc1ccc(C(C)(C)C)cc1 = 0 (no)
CC(C)c1ccc(NC(=O)Cn2cnc3c2c(=O)n(C)c(=O)n3C)cc1 = 0 (no)
CCOc1nc2c(c(=O)n(C)c(=O)n2C)n1CC(=O)Nc1ccc(C(C)(C)C)cc1 = 1 (yes)
CCCOc1nc2c(c(=O)n(C)c(=O)n2C)n1CCCC(=O)Nc1cc(C(C)(C)C)ccc1O = 0 (no)

## Input # check: inhibition of COc1nc2c(c(=O)n(C)c(=O)n2C)n1CC(=O)Nc1ccc(C(C)(C)C)cc1 is greater than or equal to 6%
## Output 1 (yes)

---

- measured.target: Transient receptor potential cation channel subfamily A member 1 (Homo sapiens) (UniProt O75762)
- Sequence (O75762 whole entry): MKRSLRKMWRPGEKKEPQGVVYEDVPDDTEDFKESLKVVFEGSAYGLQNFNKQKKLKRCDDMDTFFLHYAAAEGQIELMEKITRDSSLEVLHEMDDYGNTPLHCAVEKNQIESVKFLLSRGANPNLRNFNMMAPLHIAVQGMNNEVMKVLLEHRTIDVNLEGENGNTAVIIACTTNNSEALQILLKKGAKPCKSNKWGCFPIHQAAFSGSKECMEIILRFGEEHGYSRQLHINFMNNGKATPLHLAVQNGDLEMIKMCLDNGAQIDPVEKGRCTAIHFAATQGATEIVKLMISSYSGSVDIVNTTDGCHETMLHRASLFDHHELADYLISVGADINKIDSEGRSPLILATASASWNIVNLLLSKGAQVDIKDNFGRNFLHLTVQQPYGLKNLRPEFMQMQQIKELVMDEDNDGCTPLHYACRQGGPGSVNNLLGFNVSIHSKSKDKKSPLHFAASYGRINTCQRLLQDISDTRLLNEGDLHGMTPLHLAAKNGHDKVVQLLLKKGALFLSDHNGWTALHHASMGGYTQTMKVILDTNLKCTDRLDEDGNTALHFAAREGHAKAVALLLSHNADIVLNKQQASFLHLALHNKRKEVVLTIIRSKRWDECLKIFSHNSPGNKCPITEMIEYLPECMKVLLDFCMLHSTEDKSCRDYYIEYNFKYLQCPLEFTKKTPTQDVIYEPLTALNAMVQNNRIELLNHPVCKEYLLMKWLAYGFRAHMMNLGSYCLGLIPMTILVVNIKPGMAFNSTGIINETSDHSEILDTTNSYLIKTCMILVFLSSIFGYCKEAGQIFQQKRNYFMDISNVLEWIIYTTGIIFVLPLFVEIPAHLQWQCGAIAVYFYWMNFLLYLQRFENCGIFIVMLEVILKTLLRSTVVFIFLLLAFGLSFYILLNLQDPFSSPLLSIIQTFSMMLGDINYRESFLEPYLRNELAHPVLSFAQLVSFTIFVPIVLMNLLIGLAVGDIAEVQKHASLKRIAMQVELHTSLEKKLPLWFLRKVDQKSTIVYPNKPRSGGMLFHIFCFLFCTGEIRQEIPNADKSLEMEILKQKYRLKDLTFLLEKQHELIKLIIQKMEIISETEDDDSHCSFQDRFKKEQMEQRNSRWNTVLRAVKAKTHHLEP
- method.description: Antagonist activity at human TRPA1 expressed in HEK293 cells assessed as decrease in flufenamic acid-evoked increase in intracellular calcium level at 10 uM measured for 180 secs with 1 sec interval by Fluo4-AM dye-based fluorescence assay relative to control
- Assay type: cell-based
Note to self: values exactly at 10% are Fulfilled. So inhibition at or above 10% is Fulfilled, below is Not fulfilled.

CCOc1nc2c(c(=O)n(C)c(=O)n2C)n1CC(=O)Nc1ccc(C(C)(C)C)cc1 = Fulfilled
CCCOc1nc2c(c(=O)n(C)c(=O)n2C)n1CCCC(=O)Nc1ccc(C(C)(C)C)cc1 = Not fulfilled
CCCCOc1nc2c(c(=O)n(C)c(=O)n2C)n1CCCC(=O)Nc1cc(C(C)(C)C)ccc1O = Not fulfilled
COc1nc2c(c(=O)n(C)c(=O)n2C)n1CC(=O)Nc1ccc(C(C)C)cc1 = Fulfilled
CCCOc1nc2c(c(=O)n(C)c(=O)n2C)n1CCCC(=O)Nc1cc(C(C)(C)C)ccc1O = Not fulfilled

## Input # check: inhibition of CC(C)c1ccc(NC(=O)Cn2cnc3c2c(=O)n(C)c(=O)n3C)cc1 is greater than or equal to 10%
## Output Fulfilled

## Input # check: inhibition of COc1nc2c(c(=O)n(C)c(=O)n2C)n1CC(=O)Nc1ccc(C(C)(C)C)cc1 is greater than or equal to 10%
## Output Fulfilled

---

Record form. Attribute: inhibition. Fill in for each entry.
- measured.target: Transient receptor potential cation channel subfamily A member 1 (Homo sapiens)
- method.description: Antagonist activity at human TRPA1 expressed in HEK293 cells assessed as decrease in flufenamic acid-evoked increase in intracellular calcium level at 100 uM measured for 180 secs with 1 sec interval by Fluo4-AM dye-based fluorescence assay relative to control
- Format: cell-based
Answers are plain numbers, in %.

Please review the entries below; each comes with its answer.
CCOc1nc2c(c(=O)n(C)c(=O)n2C)n1CC(=O)Nc1cccc(Cl)c1 = 5
COc1nc2c(c(=O)n(C)c(=O)n2C)n1CCCC(=O)Nc1cccc(Cl)c1 = 9
CCCCOc1nc2c(c(=O)n(C)c(=O)n2C)n1CCCC(=O)Nc1ccc(C(C)CC)cc1 (centres undefined) = 14
CCCCOc1nc2c(c(=O)n(C)c(=O)n2C)n1CCCC(=O)Nc1cc(C(C)(C)C)ccc1O = 39
CCOc1nc2c(c(=O)n(C)c(=O)n2C)n1CCCC(=O)Nc1ccc(C(C)C)cc1 = 10

Hey, quick one: what's inhibition for each of these?
1. CCCOc1nc2c(c(=O)n(C)c(=O)n2C)n1CCCC(=O)Nc1cc(C(C)(C)C)ccc1O
2. COc1nc2c(c(=O)n(C)c(=O)n2C)n1CCCC(=O)Nc1ccc(C(C)C)cc1

## Output
[38, 18]

Hey, quick one: what's inhibition for each of these?
1. CCCOc1nc2c(c(=O)n(C)c(=O)n2C)n1CCCC(=O)Nc1ccc(C(C)(C)C)cc1
2. CCCOc1nc2c(c(=O)n(C)c(=O)n2C)n1CCCC(=O)Nc1ccc(C(C)C)cc1

## Output
52
11

---

- measured.target: 3',5'-cyclic-AMP phosphodiesterase 4B (Homo sapiens, UniProt Q07343)
- Sequence (Q07343 whole entry): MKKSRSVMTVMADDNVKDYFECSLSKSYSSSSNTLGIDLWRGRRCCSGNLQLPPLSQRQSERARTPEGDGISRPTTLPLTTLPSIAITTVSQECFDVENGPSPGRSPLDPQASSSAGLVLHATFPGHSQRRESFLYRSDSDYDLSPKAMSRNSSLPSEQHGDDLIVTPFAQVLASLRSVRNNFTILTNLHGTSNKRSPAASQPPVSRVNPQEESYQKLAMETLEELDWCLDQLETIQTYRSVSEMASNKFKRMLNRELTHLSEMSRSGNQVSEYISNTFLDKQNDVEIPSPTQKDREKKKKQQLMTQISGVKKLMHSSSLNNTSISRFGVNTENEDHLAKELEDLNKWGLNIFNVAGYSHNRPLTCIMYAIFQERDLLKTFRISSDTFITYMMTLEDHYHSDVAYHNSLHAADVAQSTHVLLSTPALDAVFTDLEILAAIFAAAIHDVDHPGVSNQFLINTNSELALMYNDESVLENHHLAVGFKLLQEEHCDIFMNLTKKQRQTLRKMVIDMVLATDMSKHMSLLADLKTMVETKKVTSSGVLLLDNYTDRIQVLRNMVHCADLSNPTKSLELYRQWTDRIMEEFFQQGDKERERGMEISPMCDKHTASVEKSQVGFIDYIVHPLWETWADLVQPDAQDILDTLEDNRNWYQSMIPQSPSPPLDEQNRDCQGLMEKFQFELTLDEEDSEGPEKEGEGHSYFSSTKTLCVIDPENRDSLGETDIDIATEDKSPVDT
- method.description: Inhibition of recombinant human PDE4B using cAMP as substrate after 10 mins by PDE-Glo Phosphodiesterase Assay
measured.parameter: pIC50
Answers are plain numbers, as −log10 of the molar value.

Please review the entries below; each comes with its answer.
CCCCOc1nc2c(c(=O)n(C)c(=O)n2C)n1CCCC(=O)Nc1cc(C(C)(C)C)ccc1O = 5.27
CCCOc1nc2c(c(=O)n(C)c(=O)n2C)n1CCCC(=O)Nc1cc(C(C)(C)C)ccc1O = 4.83
COc1nc2c(c(=O)n(C)c(=O)n2C)n1CCCC(=O)Nc1ccc(C(C)(C)C)cc1 = 4.06
CCOc1nc2c(c(=O)n(C)c(=O)n2C)n1CCCC(=O)Nc1ccc(C(C)C)cc1 = 4.49

Read the next record carefully.
## Input Please look up its pIC50: CCCOc1nc2c(c(=O)n(C)c(=O)n2C)n1CCCC(=O)Nc1ccc(C(C)CC)cc1 (centres undefined)
## Output 4.77

---

Record form. Attribute: concentration at 1.5 h. Fill in for each entry.
- method.description: Plasma concentration in Wistar rat model of LPS-induced inflammation at 50 mg/kg, ip measured at 1.5 hrs post dose by HPLC method
- Assay type: ADME, organism-based
Numbers only, in nM.

Please review the entries below; each comes with its answer.
CCCCOc1nc2c(c(=O)n(C)c(=O)n2C)n1CCCC(=O)Nc1cc(C(C)(C)C)ccc1O = 740
CCOc1nc2c(c(=O)n(C)c(=O)n2C)n1CC(=O)Nc1ccc(C(C)(C)C)cc1 = 2590

Read the next record carefully.
## Input Please look up its concentration at 1.5 h: COc1nc2c(c(=O)n(C)c(=O)n2C)n1CC(=O)Nc1ccc(C(C)(C)C)cc1
## Output 2330

---

Record form. Attribute: inhibition. Fill in for each entry.
- measured.target: Transient receptor potential cation channel subfamily A member 1 (Homo sapiens)
- method.description: Antagonist activity at human TRPA1 expressed in HEK293 cells assessed as decrease in flufenamic acid-evoked increase in intracellular calcium level at 100 uM measured for 180 secs with 1 sec interval by Fluo4-AM dye-based fluorescence assay relative to control
- Assay type: cell-based
Numbers only, in %.

CCOc1nc2c(c(=O)n(C)c(=O)n2C)n1CC(=O)Nc1ccc(C(C)(C)C)cc1 = 59
COc1nc2c(c(=O)n(C)c(=O)n2C)n1CC(=O)Nc1ccc(C(C)(C)C)cc1 = 53
CCOc1nc2c(c(=O)n(C)c(=O)n2C)n1CC(=O)Nc1ccc(Cl)cc1 = 7

Read the next record carefully.
## Input Item COc1nc2c(c(=O)n(C)c(=O)n2C)n1CCCC(=O)NCc1ccccc1Cl with Transient receptor potential cation channel subfamily A member 1 (Homo sapiens) - inhibition?
## Output 16

---

- measured.target: High affinity 3',5'-cyclic-AMP phosphodiesterase 7A (Homo sapiens)
- Sequence (Q13946 whole entry): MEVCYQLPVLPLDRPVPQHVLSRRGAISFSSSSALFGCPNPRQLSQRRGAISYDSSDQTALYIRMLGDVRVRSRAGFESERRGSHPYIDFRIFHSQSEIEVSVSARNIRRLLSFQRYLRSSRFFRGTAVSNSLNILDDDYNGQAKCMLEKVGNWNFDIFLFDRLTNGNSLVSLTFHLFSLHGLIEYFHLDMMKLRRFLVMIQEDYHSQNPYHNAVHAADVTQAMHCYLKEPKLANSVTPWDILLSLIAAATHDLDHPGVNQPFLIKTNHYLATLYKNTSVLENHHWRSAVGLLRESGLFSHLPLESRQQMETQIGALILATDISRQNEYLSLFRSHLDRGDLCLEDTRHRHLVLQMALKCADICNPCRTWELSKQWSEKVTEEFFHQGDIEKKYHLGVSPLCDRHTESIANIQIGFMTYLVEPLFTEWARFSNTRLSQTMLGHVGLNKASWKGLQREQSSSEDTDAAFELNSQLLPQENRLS
- method.description: Inhibition of recombinant human PDE7A using cAMP as substrate after 10 mins by PDE-Glo Phosphodiesterase Assay
measured.parameter: IC50 (µM)
One number for each entry, in µM.

CCCOc1nc2c(c(=O)n(C)c(=O)n2C)n1CCCC(=O)Nc1ccc(C(C)C)cc1 = 37.6

Hey, quick one: what's IC50 for each of these?
1. CCOc1nc2c(c(=O)n(C)c(=O)n2C)n1CCCC(=O)Nc1ccc(C(C)(C)C)cc1
2. CCCOc1nc2c(c(=O)n(C)c(=O)n2C)n1CCCC(=O)Nc1cc(C(C)(C)C)ccc1O
3. COc1nc2c(c(=O)n(C)c(=O)n2C)n1CCCC(=O)Nc1ccc(C(C)(C)C)cc1

## Output
54.3
41.1
19.8

---

- measured.target: 3',5'-cyclic-AMP phosphodiesterase 4B (Homo sapiens, UniProt Q07343)
- method.description: Inhibition of recombinant human PDE4B using cAMP as substrate after 10 mins by PDE-Glo Phosphodiesterase Assay
pIC50: −log10 of the molar value.
measured.parameter: pIC50

COc1nc2c(c(=O)n(C)c(=O)n2C)n1CC(=O)Nc1ccc(C(C)(C)C)cc1 = < 3.70
COc1nc2c(c(=O)n(C)c(=O)n2C)n1CC(=O)Nc1cccc(Cl)c1 = < 3.70
CCCCOc1nc2c(c(=O)n(C)c(=O)n2C)n1CCCC(=O)Nc1ccc(C(C)CC)cc1 (stereo not given) = 3.96
COc1nc2c(c(=O)n(C)c(=O)n2C)n1CCCC(=O)Nc1ccc(Cl)cc1 = < 3.70

## Input Please look up its pIC50: CCOc1nc2c(c(=O)n(C)c(=O)n2C)n1CC(=O)Nc1cccc(Cl)c1
## Output < 3.70
